target: DLG2_2, Q15700; assay: holdup assay; design: key: below the threshold = too weak to quantify, mostly under pKd 3.1 to 4; settings: plain residues with an end cap or a label only (N-terminal biotin on a linker: ado-ado)
Sequence (Q15700 189-283): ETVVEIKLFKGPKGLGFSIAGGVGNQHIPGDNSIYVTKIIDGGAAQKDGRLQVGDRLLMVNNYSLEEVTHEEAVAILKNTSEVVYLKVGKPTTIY
Result type: pKd

RRLPGKETMA [GRIK2, Q13002]
below the threshold
YYKRPVQEWV [MMP24, Q9Y5R2]
3.62
PLSPEQPTKL [TRIM50, Q86XT4]
below the threshold
SNAGNTATKA [NOSTRIN, Q8IVI9]
below the threshold
